Target: T1, CBX7 chromodomain ( (human or mouse cDNA cloned), UniProt Q8VDS3 1-71)
T1 sequence: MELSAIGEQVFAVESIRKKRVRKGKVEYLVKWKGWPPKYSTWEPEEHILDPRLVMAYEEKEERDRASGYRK
Experiment: fluorescence polarisation
pKd: −log10 of the molar value. Where no end group is shown, it is not given here.
assay-metric: pKd

> print(dat)
                                     binder  value.observed
1  APRKQLATKAARK(Me3)SAP (also: fluorescein label (position not given here)) [fluorescein-labeled H3K27me3 peptide]            4.23
